# study_system: Recombinant human HSD17B13 enzyme (Homo sapiens)
# Sequence (Q7Z5P4 20-300): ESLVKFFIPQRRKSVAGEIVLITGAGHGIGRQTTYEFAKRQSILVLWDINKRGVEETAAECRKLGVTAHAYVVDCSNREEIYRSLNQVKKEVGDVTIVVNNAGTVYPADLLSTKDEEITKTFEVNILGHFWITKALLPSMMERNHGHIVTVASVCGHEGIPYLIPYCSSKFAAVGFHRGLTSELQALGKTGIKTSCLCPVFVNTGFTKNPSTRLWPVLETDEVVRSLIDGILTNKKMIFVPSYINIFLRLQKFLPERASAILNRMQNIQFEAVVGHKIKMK
# test_summary: HSD17b13 NAD(P)H-Glo biochemical assay
# conditions: 50 uM estradiol, 1 mM NAD+, NAD(P)H-Glo luminescence; read-out: HSD17β13 IC50
pIC50: −log10 of the molar value.
Collected pIC50 values appear next to each entry.

Example entries and their recorded answers appear below.
{"columns": ["test_smiles", "pIC50"],
 "data": [
  ["COC1(C)CN(c2ccc(-n3ncc4cc(F)c(O)c(F)c43)cc2)C1", "> 7.00"],
  ["Oc1cc2c(nnn2-c2ccc(N3CC4(CCOCC4)C3)cc2)c(F)c1F", "6.00 to 7.00"]
]}

# context switch: different compound, same pIC50
CS(=O)(=O)C1CCN(c2ccc(-n3ncc4cc(F)c(O)c(F)c43)cc2)CC1 yielded pIC50 of 6.00 to 7.00
